All values here come from ChEMBL document CHEMBL1201862.

System: PC-3
Assay: NCI tumour cell line growth inhibition, 48 h
Active and inactive are the calls of the source. Rule as the data show it: active = GI50 up to about 1.1 µM and inactive = higher. Square brackets hold non-standard residues; d marks the D form. Peptide text beside a SMILES is read from it. * marks the point of attachment. ξ: configuration not given here. ξD = NC(CC(=O)O)C(=O)O; Ac3c = NC1(C(=O)O)CC1; Boc = CC(C)(C)OC(=O)*; OtBu = CC(C)(C)O*
A correct response names exactly one class from active, inactive

As a guide, the following entries are already answered.
compound | assigned-class
COC(=O)C1(NC(=O)C(CC(=O)OC(C)(C)C)NC(=O)OC(C)(C)C)CC1 (configuration not stated) (Boc-[ξD](OtBu)-[Ac3c]-OMe) | inactive
CCOC(=O)/C=C(\C(=O)OCC)n1cc(Cl)c(=O)n(CC(=O)OCC)c1=O | inactive
O=C(CCc1cc(O)cc(O)c1)NCCc1cc(O)cc(OCc2ccccc2)c1 | inactive
CC(=O)NC1C(OCc2ccccc2)OC(CO)C(O)C1OCC(=O)N[C@@H](C)C(=O)N[C@H](CCC(=O)NCCCNc1ccc([N+](=O)[O-])c2[nH]c3ccccc3c(=O)c12)C(N)=O (some centres not stated) | inactive
S=C(Nc1ccc(Br)cn1)NC12CC3CC(CC(C3)C1)C2 | inactive
Cn1ccc(C(=O)NCCCCCNC(=O)c2ccn(C)c(=O)c2O)c(O)c1=O | inactive
O=C(/N=N/c1ccccc1Br)NNc1ccccc1Br | inactive
O=C(O)c1ccc(NNc2cc(=O)[nH]c(=O)[nH]2)cc1 | inactive
Brc1ccc2c(c1)-c1nc3nc4c(cc3cc1CC2)CCc1ccc(Br)cc1-4 | inactive
O=C(O)CCCn1nnc2c(=O)[nH][nH]c(=O)c21 | inactive

### Prompt What did this assay record as the result for CN(C)c1ccc(/C=C/c2ccc(S(N)(=O)=O)cc2)cc1 ?
### Response inactive

### Prompt What did this assay record as the result for c1ccc([P+](Cc2ccc(C[P+](c3ccccc3)(c3ccccc3)c3ccccc3)s2)(c2ccccc2)c2ccccc2)cc1 ?
### Response inactive

### Prompt What did this assay record as the result for O=C(c1ccco1)C1CC(c2ccc3ccccc3c2O)=NN1c1ccc([N+](=O)[O-])cc1[N+](=O)[O-] (configuration not stated) ?
### Response inactive

### Prompt What did this assay record as the result for OCc1cn(C(c2ccccc2)(c2ccccc2)c2ccccc2)cn1 ?
### Response inactive

### Prompt What did this assay record as the result for Clc1ccc2c(NCCCCCCNc3ccnc4cc(Cl)ccc34)ccnc2c1 ?
### Response inactive

### Prompt What did this assay record as the result for COC1=C(C)C(=O)C2=C(C1=O)C1C3CC4=C(C(=O)C(OC)=C(C)C4=O)C(CNC(=O)C(C)=O)N3C(C#N)C(C2)N1C (configuration not stated) ?
### Response active

### Prompt What did this assay record as the result for NCCN(CCN(C(=O)Nc1ccccc1)c1ccccc1)C(=O)Nc1ccccc1 ?
### Response inactive

### Prompt What did this assay record as the result for CC(C)c1cc(=O)[nH]c2cc(N)ccc12 ?
### Response inactive

### Prompt What did this assay record as the result for COC(=O)c1ccccc1C1CN=NC12Cc1cc(C)c(C)cc1C2=O (configuration not stated) ?
### Response inactive

### Prompt What did this assay record as the result for CC(=O)CC1=C(OC(C)C)C2(OCCO2)C1O (configuration not stated) ?
### Response inactive

### Prompt What did this assay record as the result for O=C(O)c1cnc2[nH]ccn2c1=O ?
### Response inactive

### Prompt What did this assay record as the result for COc1cc2c(cc1OCc1ccccc1)NC(=S)[C@@H]1CCCN1C2=S ?
### Response inactive
